tested on: Staphylococcus aureus (Isolate ID ATCC 29213); test: Bacterial assay: MIC by broth microdilution or agar dilution (CLSI), S. aureus ATCC 29213; assay type: cell-based; settings: Staphylococcus aureus, ATCC29213, read-out: S. aureus MIC (μg/mL) Activity Range, S. aureus (ATCC29213)
measureName: MIC

// worked examples, MIC included
{"columns": ["compound", "MIC"],
 "data": [
  ["COCCn1cncc1CNC(=O)OCC(Oc1ccc(F)c(C(N)=O)c1F)c1nc(-c2ccc(C(F)(F)F)cc2)c(Br)o1 (stereo not shown) [Compound 207]", "1 to 16 µg/mL"],
  ["NC(=O)c1c(F)ccc(OC(COP(=O)(O)O)c2nc(-c3ccc(C(F)(F)F)cc3)c(Br)o2)c1F (stereo not shown) [Compound 81]", "0.25 to 1 µg/mL"],
  ["Cn1nccc1CNC(=O)OCC(Oc1ccc(F)c(C(N)=O)c1F)c1nc(-c2ccc(C(F)(F)F)cc2)c(Br)o1 (stereo not shown) [Compound 194]", "< 0.25 µg/mL"],
  ["CCNC(=O)NCC(Oc1ccc(F)c(C(N)=O)c1F)c1nc(-c2ccc(C(F)(F)F)cc2)c(Br)o1 (stereo not shown) [Compound 291]", "< 0.25 µg/mL"],
  ["Cc1cnccc1CNC(=O)OCC(Oc1ccc(F)c(C(N)=O)c1F)c1nc(-c2ccc(C(F)(F)F)cc2)c(Br)o1 (stereo not shown) [Compound 216]", "0.25 to 1 µg/mL"]
]}

Task: Returns the measured MIC for the input compound. Input: NC(=O)c1c(F)ccc(OC(CNC(=O)c2cccnc2)c2nc(-c3ccc(C(F)(F)F)cc3)c(Br)o2)c1F (stereo not shown) [Compound 295]
Result: 0.25 to 1 µg/mL

Task: Returns the measured MIC for the input compound. Input: COc1ncc(-c2csc(C(C)Oc3ccc(F)c(C(N)=O)c3F)n2)s1 (stereo not shown) [Compound 3]
Result: < 0.25 µg/mL

---

test system: Staphylococcus aureus (Isolate ID ATCC 29213); assay: Bacterial assay: MIC by broth microdilution or agar dilution (CLSI), S. aureus ATCC 29213; format: cell-based; settings: Staphylococcus aureus, ATCC29213, read-out: S. aureus MIC (μg/mL) Activity Range, S. aureus (ATCC29213)
Reported MIC values are given for each entry in this list.

// worked examples, MIC included
{"columns": ["compound", "MIC"],
 "data": [
  ["Cc1cc(CNC(=O)OCC(Oc2ccc(F)c(C(N)=O)c2F)c2nc(-c3ccc(C(F)(F)F)cc3)c(Br)o2)n(C)n1 (stereo not drawn) [Compound 212]", "0.25 to 1 µg/mL"],
  ["CCCC(Oc1ccc(F)c(C(N)=O)c1F)c1nc(-c2ccc(Cl)cc2)c(Br)o1 (stereo not drawn) [Compound 23]", "1 to 16 µg/mL"],
  ["CCCc1oc(C(CC)Oc2ccc(F)c(C(N)=O)c2F)nc1-c1ccc(Cl)cc1 (stereo not drawn) [Compound 26]", "0.25 to 1 µg/mL"],
  ["COC(=O)c1ccc(-c2nc(C(CO)Oc3ccc(F)c(C(N)=O)c3F)oc2Br)cc1 (stereo not drawn) [Compound 246]", "1 to 16 µg/mL"],
  ["COc1ccc(CNC(=O)OCC(Oc2ccc(F)c(C(N)=O)c2F)c2nc(-c3ccc(C(F)(F)F)cc3)c(Br)o2)cn1 (stereo not drawn) [Compound 208]", "0.25 to 1 µg/mL"],
  ["NC(=O)c1c(F)ccc(OC(C(=O)O)c2coc(-c3ccc(C(F)(F)F)cc3)n2)c1F (stereo not drawn) [Compound 132]", "> 16 µg/mL"],
  ["COc1ccc(-c2coc([C@@H](C)Oc3ccc(F)c(C(N)=O)c3F)n2)cc1 [Compound 268B]", "1 to 16 µg/mL"],
  ["NC(=O)c1c(F)ccc(O[C@@H](CO)c2nc(-c3ccc(F)cc3F)c(Br)o2)c1F [Compound 233A]", "> 16 µg/mL"]
]}

Task: Returns the measured MIC for the input compound. Input: CN(CC(=O)OCC(Oc1ccc(F)c(C(N)=O)c1F)c1nc(-c2ccc(Cl)cc2)c(Cl)o1)C(=O)OC(C)(C)C (stereo not drawn) [Compound 58]
Result: 1 to 16 µg/mL

Task: Returns the measured MIC for the input compound. Input: Cc1cc(CNC(=O)OCC(Oc2ccc(F)c(C(N)=O)c2F)c2nc(-c3ccc(C(F)(F)F)cc3)c(Br)o2)ccn1 (stereo not drawn) [Compound 200]
Result: 0.25 to 1 µg/mL

Task: Returns the measured MIC for the input compound. Input: NC(=O)c1c(F)ccc(OC(CO)c2nc(-c3ccc(Cl)cc3)co2)c1F (stereo not drawn) [Compound 10]
Result: > 16 µg/mL

Task: Returns the measured MIC for the input compound. Input: Cn1ccnc1CNC(=O)OCC(Oc1ccc(F)c(C(N)=O)c1F)c1nc(-c2ccc(C(F)(F)F)cc2)c(Br)o1 (stereo not drawn) [Compound 201]
Result: 0.25 to 1 µg/mL

Task: Returns the measured MIC for the input compound. Input: NC(=O)c1c(F)ccc(OC(CO)c2csc(-c3ccc(Cl)cc3)n2)c1F (stereo not drawn) [Compound 258]
Result: 1 to 16 µg/mL

Task: Returns the measured MIC for the input compound. Input: CC(Oc1ccc(F)c(C(N)=O)c1F)c1nc(-c2ccc(Cl)cc2)ns1 (stereo not drawn) [Compound 33]
Result: < 0.25 µg/mL

Task: Returns the measured MIC for the input compound. Input: CN(Cc1cnccn1)C(=O)OCC(Oc1ccc(F)c(C(N)=O)c1F)c1nc(-c2ccc(C(F)(F)F)cc2)c(Br)o1 (stereo not drawn) [Compound 192]
Result: 0.25 to 1 µg/mL

Task: Returns the measured MIC for the input compound. Input: CCc1oc(-c2ccc(OC)cc2)nc1C(CO)Oc1ccc(F)c(C(N)=O)c1F (stereo not drawn) [Compound 306]
Result: 1 to 16 µg/mL

Task: Returns the measured MIC for the input compound. Input: CC(=O)NNC(=O)CCC(Oc1ccc(F)c(C(N)=O)c1F)c1nc(-c2ccc(C(F)(F)F)cc2)c(Br)o1 (stereo not drawn) [Compound 92]
Result: 1 to 16 µg/mL

Task: Returns the measured MIC for the input compound. Input: CC(=O)OCC(Oc1cccc(C(N)=O)c1F)c1nc(-c2ccc(C(F)(F)F)cc2)c(Br)o1 (stereo not drawn) [Compound 158]
Result: < 0.25 µg/mL

Task: Returns the measured MIC for the input compound. Input: NC(=O)c1c(F)ccc(O[C@H](CO)c2nc(-c3ccc(C(=O)N4CCOCC4)cc3)c(Br)o2)c1F [Compound 255B]
Result: > 16 µg/mL

Task: Returns the measured MIC for the input compound. Input: NC(=O)c1c(F)ccc(OC(CO)c2nc(-c3ccc(C(F)(F)F)cc3)c(Br)o2)c1F (racemic) [Compound 38]
Result: < 0.25 µg/mL

Task: Returns the measured MIC for the input compound. Input: CCOc1ncc(-c2csc(C(C)Oc3ccc(F)c(C(N)=O)c3F)n2)s1 (stereo not drawn) [Compound 14]
Result: < 0.25 µg/mL

Task: Returns the measured MIC for the input compound. Input: NC(=O)c1c(F)ccc(OC(CO)c2nc(-c3ccc(C(F)(F)F)cn3)c(Br)o2)c1F (stereo not drawn) [Compound 79]
Result: 1 to 16 µg/mL

Task: Returns the measured MIC for the input compound. Input: COc1ccc(-c2nc(C(C)Oc3ccc(F)c(C(N)=O)c3F)oc2Br)cc1 (racemic) [Compound 5]
Result: 0.25 to 1 µg/mL

---

Reported clearance values are given for each entry in this list.
experiment: Pharmacokinetic assay: plasma concentration by LC/MS/MS after single intravenous or peroral dose of 3 mg/kg; type: in vivo; settings: mouse, plasma; 3 mg/kg IV dosing in mice
Number first, unit second.

{"columns": ["molecule", "clearance"],
 "data": [
  ["NC(=O)c1c(F)ccc(OCc2nc(-c3ccc(Cl)nc3)cs2)c1F", "139 mL/min/kg"]
]}

Task: Returns the measured clearance for the input molecule. Input: NC(=O)c1c(F)ccc(O[C@H](COC(=O)CCC(=O)O)c2nc(-c3ccc(C(F)(F)F)cc3)c(Br)o2)c1F
Result: 16 mL/min/kg

Task: Returns the measured clearance for the input molecule. Input: NC(=O)c1c(F)ccc(O[C@@H](CO)c2nc(-c3ccc(C(F)(F)F)cc3)c(Br)o2)c1F (single isomer, unassigned) [Compound 38A]
Result: 6 mL/min/kg

Task: Returns the measured clearance for the input molecule. Input: NC(=O)c1c(F)ccc(OCc2nc(-c3ccc(Cl)cc3)no2)c1F
Result: 52 mL/min/kg

Task: Returns the measured clearance for the input molecule. Input: COc1ccc(-c2nc(COc3ccc(F)c(C(N)=O)c3F)sc2-c2ccc(N(C)C)nc2)cc1
Result: 55 mL/min/kg

---

test system: Staphylococcus aureus (Isolate ID ATCC 29213); assay: Bacterial assay: MIC by broth microdilution or agar dilution (CLSI), S. aureus ATCC 29213; format: cell-based; details: Staphylococcus aureus, ATCC29213, read-out: S. aureus MIC (μg/mL) Activity Range, S. aureus (ATCC29213)
measureName: MIC

// worked examples, MIC included
{"columns": ["molecule", "assaySystem", "endpointValue"],
 "data": [
  ["C=CCc1oc(C(COC(C)=O)Oc2ccc(F)c(C(N)=O)c2F)nc1-c1ccc(C(F)(F)F)cc1 (stereo not drawn)", "Staphylococcus aureus (Isolate ID ATCC 29213)", "1 to 16 µg/mL"],
  ["NC(=O)c1c(F)ccc(OC(COC(=O)N2CCOCC2)c2nc(-c3ccc(C(F)(F)F)cc3)c(Br)o2)c1F (stereo not drawn)", "Staphylococcus aureus (Isolate ID ATCC 29213)", "< 0.25 µg/mL"],
  ["CS(=O)(=O)c1ccc(-c2nc(C(CO)Oc3ccc(F)c(C(N)=O)c3F)oc2Br)cc1 (stereo not drawn)", "Staphylococcus aureus (Isolate ID ATCC 29213)", "> 16 µg/mL"]
]}

Task: Returns the measured MIC for the input molecule. Input: NC(=O)c1c(F)ccc(O[C@H](CO)c2nc(-c3ccc(OC(F)F)cc3)co2)c1F [Compound 274B]
Result: 1 to 16 µg/mL

Task: Returns the measured MIC for the input molecule. Input: NCCC(Oc1ccc(F)c(C(N)=O)c1F)c1nc(-c2ccc(C(F)(F)F)cc2)c(Br)o1 (stereo not drawn)
Result: > 16 µg/mL

Task: Returns the measured MIC for the input molecule. Input: NC(=O)c1c(F)ccc(OC(COC(=O)NCCN2CCCC2)c2nc(-c3ccc(C(F)(F)F)cc3)c(Br)o2)c1F (stereo not drawn)
Result: 1 to 16 µg/mL

Task: Returns the measured MIC for the input molecule. Input: CNc1ccc(-c2coc(C(CO)Oc3ccc(F)c(C(N)=O)c3F)n2)cn1 (stereo not drawn)
Result: > 16 µg/mL

Task: Returns the measured MIC for the input molecule. Input: CCOC(=O)C(Oc1ccc(F)c(C(N)=O)c1F)c1coc(-c2ccc(C(F)(F)F)cc2)n1 (stereo not drawn)
Result: 1 to 16 µg/mL

Task: Returns the measured MIC for the input molecule. Input: CC(Oc1ccc(F)c(C(N)=O)c1F)c1nc(-c2ccc(Cl)cc2)co1 (stereo not drawn)
Result: 1 to 16 µg/mL

Origin of the recorded values: patent US9511073B2
